system: Calu-3; test: cell viability relative to DMSO; higher = less toxic; details: 72 h; 100 nM
RESULT TYPE: cell viability (%)
Answer with a number only, understood to be in %.

Recorded results for 3 molecules are shown here.
CC(=O)[C@@]1(O)CC[C@H]2[C@@H]3C[C@H](C)C4=CC(=O)CC[C@]4(C)[C@H]3CC[C@@]21C    95.6
N[C@H](Cc1c[nH]cn1)C(=O)O    84.8
CC[C@H](C)[C@H](N)C1=N[C@H](C(=O)N[C@@H](CC(C)C)C(=O)N[C@H](CCC(=O)O)C(=O)N[C@H](C(=O)N[C@H]2CCCCNC(=O)[C@H](CC(N)=O)NC(=O)[C@@H](CC(=O)O)NC(=O)[C@H](Cc3cnc[nH]3)NC(=O)[C@@H](Cc3ccccc3)NC(=O)[C@H]([C@@H](C)CC)NC(=O)[C@@H](CCCN)NC2=O)[C@@H](C)CC)CS1    97.7

Just so you know, measured cell viability for CN(C)CCCC(=O)Nc1ccc(C(=O)Nc2cccc(Nc3ncc(Cl)c(-c4c[nH]c5ccccc45)n3)c2)cc1 came out at 106

So for Cc1c(S(=O)(=O)O)oc2c1C(=O)C(=O)c1c-2ccc2c1CCCC2(C)C [sodium-tanshinone-II-A-sulfonate] , the logged cell viability turned out to be 101

Documented cell viability of O=C(O)c1ccc(/C=C2\SC(=S)N(c3cccc(C(F)(F)F)c3)C2=O)cc1 : 97.8
